Numbers sourced from a melting point compilation (Tetko et al.; mined from patent text by program, amines drawn as free bases though some values may be those of a salt).

# melting point per record follows

Some solved entries appear below for comparison.
- molecule: "CN1CC(CN)Oc2c(-c3cccc(Cl)c3)cccc21 (stereo not given)"
  val: "134 °C"
- molecule: "Cc1ccc(C(=O)c2cc(Br)c(CC(=O)O)n2C)cc1"
  val: "162 to 164 °C"
- molecule: "O=C(NCC1CCCC1)c1ccc2[nH]ccc2c1"
  val: "110 to 112 °C"

# get_value(readout='melting point', item= O=C1NC(=S)SC1=Cc1ccc2c(c1)N(Cc1cccc(-c3ccncc3)c1)C(=O)CO2 )
297 to 299 °C

# get_value(readout='melting point', item= COc1cc2nc(N3CCN(C(=O)NC4CCCC4)CC3)nc(N)c2cc1OC )
200 to 202 °C

# get_value(readout='melting point', item= CCON(C(=O)c1cn(C)nc1C(F)F)C(C)Cc1c(Cl)cc(Cl)cc1Cl (stereo not given) )
111 to 114 °C

# get_value(readout='melting point', item= CCc1nc(/C=C/c2cn(-c3ccccc3)nc2OCc2ccc(OCc3nc(-c4ccc(C(=O)O)o4)oc3C)c(OC)c2)cs1 )
154 to 155 °C

---

# melting point per record follows

Some solved entries appear below for comparison.
- molecule: "CCC(CC)c1ccc(Cl)c2nc3n(c12)CCN3c1ccc(C(N)=O)cc1Cl"
  observed property: "melting point"
  val: "225 to 229 °C"
- molecule: "Oc1ccc(-c2nc3ccc(O)cc3s2)cc1"
  observed property: "melting point"
  val: "284 to 286 °C"
- molecule: "CC(c1cc(F)cc(Br)c1O)c1cc(Cl)cc(C(C)c2cc(F)cc(Br)c2O)c1O (centres undefined)"
  observed property: "melting point"
  val: "136 °C"
- molecule: "c1ccc(-c2nc(COc3cccc(CCCn4ccnc4)c3)cs2)cc1"
  observed property: "melting point"
  val: "63 to 64 °C"
- molecule: "O=C(c1cccs1)c1cnn2c(-c3cc([N+](=O)[O-])ccc3Cl)ccnc12"
  observed property: "melting point"
  val: "162 to 166 °C"

# evaluate next
# get_value(readout='melting point', item= Cc1nc(-c2ccccc2)nc(-c2ccc(O)c(N)c2)c1C(=O)N1CCN(C)CC1 )
129 to 131 °C

---

# melting point per record follows

- molecule: "CCCOC(=O)C1CCC2C3CCC4CC(O)C(O)CC4(C)C3C(NCCC(C)C)CC12C (centres undefined)"
  val: "140 to 142 °C"

# evaluate next
# get_value(readout='melting point', item= CCN1C(=O)NC(Cc2c[nH]c3ccccc23)C1CCc1cc(C(F)(F)F)cc(C(F)(F)F)c1 (centres undefined) )
228 to 230 °C

---

# melting point per record follows

Some solved entries appear below for comparison.
- molecule: "Cc1cccc(NC(=O)NC2N=C(c3ccccc3F)c3ccccc3N(Cc3ccc4ccccc4n3)C2=O)c1 (racemic)"
  melting point: "224 to 225 °C"
- molecule: "COc1ccc(N2CCN(c3ccc(OC)nc3-c3ccc(N(C)C)cc3)C(C)C2)cc1 (centres undefined)"
  melting point: "140 to 148 °C"
- molecule: "O=C(O)CCCCCCC1=CC(O)CC1=O (centres undefined)"
  melting point: "47 to 48.5 °C"
- molecule: "CCOC(=O)Cc1cc(OC)c(OC(C)=O)c(C2(OC(C)=O)C(=O)c3ccccc3C2=O)c1"
  melting point: "102 to 107 °C"
- molecule: "CCCCNc1nc(-c2ccc(F)cc2)c(-c2ccc(S(C)(=O)=O)cc2)s1"
  melting point: "134 to 135 °C"

# get_value(readout='melting point', item= COc1ccc(-c2nc(N)sc2-c2ccncc2)cc1 )
282 to 284 °C

# get_value(readout='melting point', item= COc1cccc(-c2cc(C#N)c(SC)[nH]2)c1 )
112 to 113 °C

# get_value(readout='melting point', item= COc1cc(C)c(Cc2cnc(N)nc2N)cc1OC )
223 to 225 °C

# get_value(readout='melting point', item= O=S(=O)(Oc1ccc2c(OS(=O)(=O)c3ccc(O)cc3)c3cc(OS(=O)(=O)c4ccc(O)cc4)ccc3cc2c1)c1ccc(O)cc1 )
192 to 194 °C
